These measurements were taken from patent US20210363269A1.

This listing pairs binders with measured koff.
Target: T1, BALBc mouse SIRP-α (mouse (BALB/c strain))
T1 chain: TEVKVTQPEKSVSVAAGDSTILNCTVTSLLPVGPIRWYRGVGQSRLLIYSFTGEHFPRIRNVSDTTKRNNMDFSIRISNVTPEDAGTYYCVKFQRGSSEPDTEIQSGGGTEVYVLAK
Assay: SPR
Answer format: numeric, s⁻¹ implied, no suffix.

binder	measurement_name	unit_symbol	experimental_value
Hum3/AB66_HC_wt (antibody, V domains shown) VH: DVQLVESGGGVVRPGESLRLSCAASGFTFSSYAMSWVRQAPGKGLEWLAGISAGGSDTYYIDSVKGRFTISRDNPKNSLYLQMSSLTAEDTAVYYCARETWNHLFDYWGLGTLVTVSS VL: SYELTQPPSVSVSPGQTARITCSGGDYYSTYYAWYQQKPGQAPVTVIHSDDKRPSDIPERFSGSSSGTTVTLTISGVQAEDEADYYCGGYDGRTYINTFGGGTKLTVL	koff	s⁻¹	0.00205

Then this binder:
Prompt: Query (binder): Hum1/AB66_HC_wt (antibody, V domains shown) VH: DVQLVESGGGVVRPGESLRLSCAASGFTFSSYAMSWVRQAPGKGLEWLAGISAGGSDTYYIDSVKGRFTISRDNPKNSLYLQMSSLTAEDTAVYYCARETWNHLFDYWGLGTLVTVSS VL: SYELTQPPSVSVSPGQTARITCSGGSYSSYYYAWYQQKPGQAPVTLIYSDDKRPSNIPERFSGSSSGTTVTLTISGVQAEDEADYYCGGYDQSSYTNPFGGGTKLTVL ; field requested: koff
Response: 0.00246
